Data credit: the supplement of paper PMC10037445

Tested on: RAW-Dual
Experiment: NF-kB SEAP reporter activity, fold change vs agonist alone; cytotoxicity flag (confluency mask): not cytotoxic; higher = enhanced NF-kB activity
Conditions: agonist: ODN 1826 (TLR9) 0.5 ug/mL
The full ranking holds about 2,900 compounds; the median of “NF-kB SEAP reporter activity, fold change vs agonist alone” is about 0.99, and the highest 2% start at about 2.6. This excerpt belongs to a sample that is enriched for the highest values.
Kind request: treat 0.8 as inclusive, so NF-kB SEAP reporter activity at 0.8 or higher is fulfilled, anything lower is not fulfilled.

(Q) For this compound, is measured NF-kB SEAP reporter activity 0.8 or higher? CSCCNc1nc(SCCC(F)(F)F)nc2c1ncn2C1OC(COP(=O)(O)OP(=O)(O)C(Cl)(Cl)P(=O)(O)O)C(O)C1O (stereo not given) (library stock concentration (final ~1000-fold dilution): 10 mM water)
(A) fulfilled

***
(Q) For this compound, is measured NF-kB SEAP reporter activity 0.8 or higher? N=C(N)c1ccc(OCCCCCOc2ccc(C(=N)N)cc2)cc1.O=S(=O)(O)CCO.O=S(=O)(O)CCO (library stock concentration (final ~1000-fold dilution): 10 mM)
(A) fulfilled

(Q) For this compound, is measured NF-kB SEAP reporter activity 0.8 or higher? NC(=O)c1ccc(OCCCN2CC3CCCC3C2)cc1 (stereo not given) (library stock concentration (final ~1000-fold dilution): 10 mM)
(A) not fulfilled

(Q) For this compound, is measured NF-kB SEAP reporter activity 0.8 or higher? Nc1cc(C(F)(F)F)c(-c2nc(N3CCOCC3)nc(N3CCOCC3)n2)cn1 (library stock concentration (final ~1000-fold dilution): 10 mM)
(A) not fulfilled

(Q) For this compound, is measured NF-kB SEAP reporter activity 0.8 or higher? FC(F)c1nc2ccccc2n1-c1nc(N2CCOCC2)nc(N2CCOCC2)n1 (library stock concentration (final ~1000-fold dilution): 10 mM)
(A) fulfilled
